Target: UniProtKB Q704Y3
Sequence (Q704Y3 whole entry): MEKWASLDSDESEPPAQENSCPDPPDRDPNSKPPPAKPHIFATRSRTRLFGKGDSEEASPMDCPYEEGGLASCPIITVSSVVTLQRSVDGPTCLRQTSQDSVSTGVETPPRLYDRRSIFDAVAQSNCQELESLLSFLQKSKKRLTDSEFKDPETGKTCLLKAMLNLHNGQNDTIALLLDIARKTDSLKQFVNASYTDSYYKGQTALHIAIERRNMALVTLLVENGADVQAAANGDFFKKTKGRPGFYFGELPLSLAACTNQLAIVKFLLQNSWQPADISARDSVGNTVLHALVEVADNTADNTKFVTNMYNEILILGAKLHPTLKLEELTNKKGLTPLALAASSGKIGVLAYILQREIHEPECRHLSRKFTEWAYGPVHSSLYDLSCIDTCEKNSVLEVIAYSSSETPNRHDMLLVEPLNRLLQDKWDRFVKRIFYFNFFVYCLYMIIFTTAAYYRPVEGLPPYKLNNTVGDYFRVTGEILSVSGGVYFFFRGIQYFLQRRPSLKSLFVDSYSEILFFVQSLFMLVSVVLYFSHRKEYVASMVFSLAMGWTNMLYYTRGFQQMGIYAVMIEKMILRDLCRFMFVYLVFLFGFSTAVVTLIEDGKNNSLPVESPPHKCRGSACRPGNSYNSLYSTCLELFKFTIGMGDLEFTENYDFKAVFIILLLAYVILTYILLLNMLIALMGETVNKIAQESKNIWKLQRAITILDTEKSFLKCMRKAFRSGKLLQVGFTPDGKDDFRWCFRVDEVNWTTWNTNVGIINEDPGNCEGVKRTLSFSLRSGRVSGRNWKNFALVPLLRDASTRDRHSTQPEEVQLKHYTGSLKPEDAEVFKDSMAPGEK
Assay: Antagonist activity at TRPV1 channel in mouse DRG neurons assessed as inhibition of capsaicin-induced calcium accumulation at 300 uM incubated for 6 mins by Fura-2-AM dye based fluorescence assay relative to control
Non-standard residues stand in square brackets, D forms with d. Residues, ends and D or L forms follow the SMILES beside them. *: point of attachment. d(aThr) = C[C@@H](O)[C@@H](N)C(=O)O; Dhb = C/C=C(\N)C(=O)O; Propionyl = CCC(=O)*
Recorded Endpoint: inhibition (%)

C/C=C(\NC(=O)[C@H](C)NC(=O)[C@H](C)NC(=O)[C@H](NC(=O)[C@H](Cc1ccccc1)NC(=O)[C@@H](CC(C)C)NC(=O)[C@@H](Cc1ccccc1)NC(=O)CC)[C@@H](C)O)C(=O)O = 27.8
C/C=C(\NC(=O)[C@H](C)NC(=O)[C@@H](NC(=O)[C@H](NC(=O)[C@H](C)NC(=O)[C@@H](CC(C)C)NC(=O)[C@@H](Cc1ccccc1)NC(=O)CC)[C@@H](C)O)C(C)C)C(=O)O = 23.5
C/C=C(\NC(=O)[C@H](C)NC(=O)[C@@H](NC(=O)[C@H](NC(=O)[C@H](Cc1ccccc1)NC(=O)[C@@H](CC(C)C)NC(=O)[C@@H](Cc1ccccc1)NC(=O)CC)[C@@H](C)O)C(C)C)C(=O)O (Propionyl-[dF][dL]F[d(aThr)]VA[Dhb]-OH) = 33.6
C/C=C(\NC(=O)[C@H](C)NC(=O)[C@@H](NC(=O)[C@H](NC(=O)[C@H](Cc1ccccc1)NC(=O)[C@@H](CC(C)C)NC(=O)[C@H](C)NC(=O)CC)[C@@H](C)O)C(C)C)C(=O)O = 6.47

[a] C/C=C(\NC(=O)[C@H](C)NC(=O)[C@@H](NC(=O)[C@H](C)NC(=O)[C@H](Cc1ccccc1)NC(=O)[C@@H](CC(C)C)NC(=O)[C@@H](Cc1ccccc1)NC(=O)CC)C(C)C)C(=O)O
[b] CCC(=O)N[C@H](Cc1ccccc1)C(=O)N[C@H](CC(C)C)C(=O)N[C@@H](Cc1ccccc1)C(=O)N[C@@H](C(=O)N[C@H](C(=O)N[C@@H](C)C(=O)N[C@@H](C)C(=O)O)C(C)C)[C@@H](C)O
[c] C/C=C(\NC(=O)[C@H](C)NC(=O)[C@@H](NC(=O)[C@H](NC(=O)[C@H](Cc1ccccc1)NC(=O)[C@H](C)NC(=O)[C@@H](Cc1ccccc1)NC(=O)CC)[C@@H](C)O)C(C)C)C(=O)O
Query :: Order the items by recorded inhibition; the first position goes to the largest value. Ranked list of labels, please, in the requested order.
Result :: b, a, c
(b: 35.6%, a: 5.38%, c: 3.27%)
